Target: C5aR (Homo sapiens (Human))
Sequence (P21730 whole entry): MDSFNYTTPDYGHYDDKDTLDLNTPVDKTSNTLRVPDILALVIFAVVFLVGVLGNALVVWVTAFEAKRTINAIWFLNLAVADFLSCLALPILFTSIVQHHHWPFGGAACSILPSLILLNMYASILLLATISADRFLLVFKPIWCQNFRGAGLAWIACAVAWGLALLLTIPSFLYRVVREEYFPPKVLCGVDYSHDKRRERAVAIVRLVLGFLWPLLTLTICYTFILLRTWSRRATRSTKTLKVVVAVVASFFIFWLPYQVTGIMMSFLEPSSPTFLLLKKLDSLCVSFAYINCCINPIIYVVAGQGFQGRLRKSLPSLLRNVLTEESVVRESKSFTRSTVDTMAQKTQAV
Assay: Chemotaxis assay (inhibition of C5aR mediated migration toward C5a)
Details: inhibition in the chemotaxis assay (Example 14 B.3); U937 or neutrophil cells, C5a as chemoattractant
pIC50: −log10 of the molar value.
assay readout: pIC50

Previously resolved entries follow.
compound | tested target | pIC50
CCc1cccc(CC)c1-n1nc2c(c1-c1ccc(F)c3[nH]ccc13)CN(CC(C)(C)C)C2(C)C | C5aR (Homo sapiens (Human)) | 6.30 to 7.30
CCc1cccc(CC)c1-n1nc2c(c1-c1ccc(F)c3[nH]ccc13)CN(C(=O)C(C)(C)C(F)(F)F)C2(C)C | C5aR (Homo sapiens (Human)) | 7.30 to 8.30
Cc1cccc(C)c1-n1nc2c(c1-c1ccc3[nH]ccc3c1)CN(CC(C)(C)C)C2 | C5aR (Homo sapiens (Human)) | ≤ 6.30

For the next question, use this molecule.
The measured pIC50 associated with `CCc1cccc(CC)c1-n1nc2c(c1-c1ccc(F)c3[nH]ccc13)CN(CC(C)(C)C(F)(F)F)C2(C)C` reads > 8.30
